Measured values drawn from patent US20190308933A1 for this set.

- experiment: Log P measurement by HPLC on reversed phase columns (EEC directive 79/831 Annex V.A8)
- Type: physicochemical
- condition.description: reversed phase HPLC column, LC-UV, neutral range, 0.001 molar ammonium acetate solution in water and acetonitrile as eluent (linear gradient 10% to 95% acetonitrile); read-out: LogP [b]
Where chromatographic logP equals or exceeds 5, the correct label is Yes; where it does not, the label is No.

>  <compound>
CCN(C)C=Nc1cc(F)c(Cc2ccccc2F)cc1C [Example 33]

>  <cat>
No

$$$$
>  <compound>
CCN(C)C=Nc1cc(C)c(Cc2ccccc2C#N)cc1C [Example 8]

>  <cat>
No

$$$$
>  <compound>
CCN(C)C=Nc1cc(Cl)c(Cc2ccccc2)cc1C [Example 6]

>  <cat>
Yes

$$$$
>  <compound>
CCN(C)C=Nc1cc(C)c(Cc2ccc(F)cc2F)cc1Cl [Example 21]

>  <cat>
No

$$$$
>  <compound>
CCN(C)C=Nc1cc(C)c(Cc2ccccc2Cl)cc1C [Example 7]

>  <cat>
Yes

$$$$
>  <compound>
CCN(C)C=Nc1cc(C)c(Cc2ccccc2C#N)cc1Cl [Example 1]

>  <cat>
No

$$$$
>  <compound>
Cc1cc(N=CN(C)C(C)C)c(C)cc1Cc1ccc(F)cc1F [Example 12]

>  <cat>
Yes

$$$$
>  <compound>
CCN(C)C=Nc1cc(F)c(Cc2ccccc2)cc1C [Example 20]

>  <cat>
No

$$$$

###

- experiment: Log P measurement by HPLC on reversed phase columns (EEC directive 79/831 Annex V.A8)
- Assay type: physicochemical
- condition.description: reversed phase HPLC column, LC-UV, neutral range, 0.001 molar ammonium acetate solution in water and acetonitrile as eluent (linear gradient 10% to 95% acetonitrile); read-out: LogP [b]
- Description: [table] Measurement of Log P values was performed according to EEC directive 79/831 Annex V.A8 by HPLC (High Performance Liquid Chromatography) on reversed phase columns with the following methods: If more than one Log P value is available within the same method, all the values are given and separated by “+”. […] Lambda-max-values were determined using UV-spectra from 200 nm to 400 nm and the peak values of the chromatographic signals.

>  <input.smiles>
CCN(C)C=Nc1cc(C)c(Cc2ccccc2Cl)cc1Cl

>  <chromatographic logP>
4.93

$$$$
>  <input.smiles>
C=C(c1ccccc1)c1cc(Cl)c(N=CN(C)CC)cc1C

>  <chromatographic logP>
4.93

$$$$
>  <input.smiles>
CCN(C)C=Nc1cc(C)c(Cc2ccccc2F)cc1C

>  <chromatographic logP>
4.87

$$$$
>  <input.smiles>
CCN(C)C=Nc1cc(Cl)c(Cc2cccc(F)c2F)cc1C

>  <chromatographic logP>
4.92

$$$$
>  <input.smiles>
CCN(C)C=Nc1cc(C)c(Cc2ccc(F)cc2F)cc1C

>  <chromatographic logP>
4.86

$$$$
